# STUDY SYSTEM: MAGL (Mus musculus, UniProt O35678)
# Construct: Proteomes (mouse brain membrane fraction or cell lysates); from tissue; host or cells: mouse brain membrane fraction (or cell lysates, not specified)
# Sequence (O35678 whole entry): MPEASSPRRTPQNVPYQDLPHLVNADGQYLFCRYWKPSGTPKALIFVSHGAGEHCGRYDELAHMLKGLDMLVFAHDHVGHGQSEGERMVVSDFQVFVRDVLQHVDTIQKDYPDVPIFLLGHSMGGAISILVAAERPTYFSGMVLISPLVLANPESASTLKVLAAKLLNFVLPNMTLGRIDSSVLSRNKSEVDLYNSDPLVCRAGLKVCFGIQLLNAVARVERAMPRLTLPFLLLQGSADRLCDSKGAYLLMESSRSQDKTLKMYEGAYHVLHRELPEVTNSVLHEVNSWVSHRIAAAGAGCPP
# ASSAY PROCEDURE: In vitro competitive activity-based protein profiling (gel-based, FP-Rh or HT-01 probe)
# Format: biochemical
# MEASUREMENT PARAMETERS: 1 μM inhibitor
REPORTED ENDPOINT: inhibition at 1 µM

Examples with answers:
# SMILES REPR, RESULT
data = [
    ("O=C(c1cnn(C(=O)N2CCN(Cc3ccncc3)CC2)c1)N1CCCCC1", "< 25%"),
    ("Cc1cnn(C(=O)N2CCN(S(C)(=O)=O)CC2)c1", "< 25%"),
    ("O=C(N1CCN(CC2CC2)CC1)n1cc(Cl)cn1", "25 to 75%"),
    ("CCN(Cc1cccc(N2CCOCC2)c1)C(=O)n1cc(C#N)cn1", "> 75%"),
    ("CC(=O)N1CCN(C(=O)n2cc(C)cn2)CC1", "< 25%"),
    ("O=C(c1cnn(C(=O)N2CCN(C(c3ccc(Cl)cc3)c3ccc(Cl)cc3)CC2)c1)N1CCC1", "> 75%"),
]

Item Cc1cc(N2CCN(C(=O)n3cc(Cl)cn3)CC2)c2ccccc2n1 was tested on MAGL (Mus musculus, UniProt O35678); the reported inhibition at 1 µM is > 75%

Reading of inhibition at 1 µM for O=C(N1CCN(Cc2ccc(C(F)(F)F)cc2)CC1)n1cc(Cl)cn1 with MAGL (Mus musculus, UniProt O35678): > 75%

Tested system MAGL (Mus musculus, UniProt O35678); inhibition at 1 µM recorded for O=C(N1CCN(Cc2ccc(C(F)(F)F)cc2N2CCCC2)CC1)n1cc(-c2ccccc2C(F)(F)F)cn1 was < 25%
